Conditions: human
TEST_READOUT: Hepatotoxicity (severe hepatitis)
// return a plain number; no unit text

Take a look at these entries with their results.
# SUBSTANCE, TEST_READOUT, VALUE_REPORTED
measured = [
    ("ALTEPLASE", "Hepatotoxicity (severe hepatitis)", 0),
    ("CARBOPLATIN", "Hepatotoxicity (severe hepatitis)", 1),
    ("NYSTATIN", "Hepatotoxicity (severe hepatitis)", 0),
]

As a next step, examine the substance that follows.
Query: Quick check: Hepatotoxicity (severe hepatitis) of DALTEPARIN SODIUM ?
Result: 0

* * *

Details: human
Use 1 as the dividing line for Hepatotoxicity (choleostasis), with the line itself on the 1.0 side and lower values as 0.0.

Some solved entries appear below for comparison.
# MOLECULE, GROUP_LABEL
rows = [
    ("CN(C)[C@@H]1C(O)=C(C(N)=O)C(=O)[C@@]2(O)C(O)=C3C(=O)c4c(O)cccc4[C@@](C)(O)[C@H]3C[C@@H]12 [TETRACYCLINE]", 1.0),
    ("CNNCc1ccc(C(=O)NC(C)C)cc1 [PROCARBAZINE]", 0.0),
]

Query: # check: Hepatotoxicity (choleostasis) of COc1cc2c(cc1OC)C(=O)C(CC1CCN(Cc3ccccc3)CC1)C2 (configuration not stated) [DONEPEZIL] is greater than or equal to 1
Result: 1.0

Query: What do you get for NC1CCN(c2nc3c(cc2F)c(=O)c(C(=O)O)cn3-c2ccc(F)cc2F)C1 (configuration not stated) [TOSUFLOXACIN] ?
Result: 0.0

Query: What do you get for FC(F)OC(F)C(F)(F)F (configuration not stated) ?
Result: 0.0

Query: What do you get for C[C@@H]1CN(c2c(F)c(N)c3c(=O)c(C(=O)O)cn(C4CC4)c3c2F)C[C@H](C)N1 [SPARFLOXACIN] ?
Result: 0.0

Query: What do you get for Cc1cn([C@H]2CC[C@@H](CO)O2)c(=O)[nH]c1=O ?
Result: 0.0

Query: What do you get for CN1Cc2c(N)cccc2C(c2ccccc2)C1 (configuration not stated) [NOMIFENSINE] ?
Result: 1.0

Query: What do you get for CO[C@H](C(=O)[C@@H](O)[C@@H](C)O)[C@@H]1Cc2cc3cc(O[C@H]4C[C@@H](O[C@H]5C[C@@H](O)[C@H](O)[C@@H](C)O5)[C@H](O)[C@@H](C)O4)c(C)c(O)c3c(O)c2C(=O)[C@H]1O[C@H]1C[C@@H](O[C@H]2C[C@@H](O[C@H]3C[C@](C)(O)[C@H](O)[C@@H](C)O3)[C@@H](O)[C@@H](C)O2)[C@H](O)[C@@H](C)O1 [PLICAMYCIN] ?
Result: 0.0

Query: What do you get for Nc1c(CC(=O)O)cccc1C(=O)c1ccc(Br)cc1 [BROMFENAC] ?
Result: 0.0

Query: What do you get for CC(S)C(=O)NCC(=O)O (configuration not stated) [TIOPRONIN] ?
Result: 1.0

Query: What do you get for CCN(CC)CC[n+]1ccc2c(C)c3[nH]c4ccc(O)cc4c3c(C)c2c1.[Cl-] [DATELLIPTIUM CHLORIDE] ?
Result: 0.0

Query: What do you get for O=C1c2c(O)ccc(O)c2C(=O)c2c(NCCNCCO)ccc(NCCNCCO)c21 [MITOXANTRONE] ?
Result: 0.0

Query: What do you get for CCc1oc2ccccc2c1C(=O)c1cc(I)c(O)c(I)c1 [BENZIODARONE] ?
Result: 1.0

Query: What do you get for O=C(O)c1nn(Cc2ccc(Cl)cc2Cl)c2ccccc12 [LONIDAMINE] ?
Result: 0.0

Query: What do you get for CCCC(=O)O[C@H]1[C@H](C)O[C@@H](O[C@H]2[C@H](N(C)C)[C@@H](O)[C@H](O[C@H]3[C@@H](CC=O)C[C@@H](C)[C@@H](O)/C=C/C=C/C[C@@H](C)OC(=O)C[C@@H](O)[C@@H]3OC)O[C@@H]2C)C[C@@]1(C)OC(=O)CC [ROKITAMYCIN] ?
Result: 0.0

Query: What do you get for CC(=O)OCOC(=O)C1=C(COC(N)=O)SC2[C@H]([C@H](C)O)C(=O)N12 (some centres not stated) ?
Result: 0.0

Query: What do you get for CN(C)CCCN1c2ccccc2CCc2ccccc21 [IMIPRAMINE] ?
Result: 1.0

Query: What do you get for CCC(=O)O[C@@H]1CC(=O)O[C@H](C)C/C=C/C=C/[C@H](O)[C@H](C)C[C@H](CC=O)[C@H](O[C@@H]2O[C@H](C)[C@@H](O[C@H]3C[C@@](C)(O)[C@@H](OC(=O)CC)[C@H](C)O3)[C@H](N(C)C)[C@H]2O)[C@H]1OC [MIDECAMYCIN] ?
Result: 0.0

Query: What do you get for CN(C)C(=O)CCCOC(=O)C(C)(C)Oc1ccc(Cl)cc1 [CLOFIBRIDE] ?
Result: 0.0

Query: What do you get for CCC(Cc1cnc2nc(N)nc(N)c2n1)c1ccc(C(=O)N[C@@H](CCC(=O)O)C(=O)O)cc1 (some centres not stated) [EDATREXATE] ?
Result: 0.0

Hey, just so you know, these numbers are from ChEMBL document CHEMBL3137667.
